# target_desc: C-X-C chemokine receptor type 6 (Homo sapiens) (UniProt O00574)
# Sequence (O00574 whole entry, looked up): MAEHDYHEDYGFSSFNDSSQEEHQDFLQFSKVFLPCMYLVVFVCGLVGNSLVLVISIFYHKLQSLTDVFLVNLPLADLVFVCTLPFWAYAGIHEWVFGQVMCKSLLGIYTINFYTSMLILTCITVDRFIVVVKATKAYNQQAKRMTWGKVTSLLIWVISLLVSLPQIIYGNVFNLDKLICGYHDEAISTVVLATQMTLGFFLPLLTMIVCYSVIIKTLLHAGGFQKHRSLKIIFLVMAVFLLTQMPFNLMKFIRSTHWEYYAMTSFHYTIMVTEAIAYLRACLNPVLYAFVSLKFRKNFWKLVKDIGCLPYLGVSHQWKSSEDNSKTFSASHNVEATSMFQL
# protocol_notes: potency against CXCR6 with APJ panel – cell-based, beta-arrestin, DiscoveRx, uHTS hits, dose response (AID 624129)
# experimental_setup: CXCR6 beta-arrestin (DiscoveRx) antagonist cell assay, CXCR6, dose range 1
Activity calls are given as the source filed them. How the calls were made is not given here.
API: response.call in active, inactive

Problem: Tell me the recorded outcome of this test for `NC(=S)N/N=C/c1ncc(C(F)(F)F)cc1Cl` .
Result: active

Problem: Tell me the recorded outcome of this test for `O=C1c2sc3nc4ccccc4n3c2C(=O)N1c1ccccc1Cl` .
Result: inactive

Problem: Tell me the recorded outcome of this test for CCC(=O)OCOc1ccc(/C=C2/CCC(CN(C)C)C2=O)cc1 (stereo unspecified) .
Result: inactive

Problem: Tell me the recorded outcome of this test for `CN(C)c1nc(=NCc2cccs2)ss1` .
Result: active

Problem: Tell me the recorded outcome of this test for `O=C(OCn1ncc(Cl)c(Cl)c1=O)c1cccc(C(F)(F)F)c1` .
Result: inactive

Problem: Tell me the recorded outcome of this test for `Cc1cccc(C)c1NC(=O)c1nc(S(=O)(=O)Cc2ccccc2)ncc1Cl` .
Result: inactive

Problem: Tell me the recorded outcome of this test for `O=[N+]([O-])c1c(NCCCO)cc(Sc2ccc(Cl)cc2)c2nonc12` .
Result: inactive

Problem: Tell me the recorded outcome of this test for `Cc1ccc(NC(=S)N/N=C/c2ccc([N+](=O)[O-])s2)cc1` .
Result: active

Problem: Tell me the recorded outcome of this test for `COc1ccc(C[C@@H]2OC3(C=CC(=O)C=C3)O[C@H]2Cc2ccc(OC)cc2)cc1` .
Result: active

Problem: Tell me the recorded outcome of this test for `Cc1[nH][nH]c(=O)c1C(c1c(C)[nH][nH]c1=O)c1cn(Cc2ccc(Cl)c(Cl)c2)c2ccccc12` .
Result: inactive

Problem: Tell me the recorded outcome of this test for CS(=O)(=O)c1sc(C#N)c2c1C(=O)CC(c1ccccc1)C2 (stereo unspecified) .
Result: inactive

---

# target_desc: C-X-C chemokine receptor type 6 (Homo sapiens)
# protocol_notes: potency against CXCR6 with APJ panel – cell-based, beta-arrestin, DiscoveRx, uHTS hits, dose response (AID 624129)
# experimental_setup: CXCR6 beta-arrestin (DiscoveRx) antagonist cell assay, CXCR6, dose range 1, mean IC50 across replicates
Task for the reader: assign each of the following molecules its reported pIC50.
Hey, just a heads up that pIC50 is the negative log base 10 of the concentration in molar.

Problem: Respond only with pIC50 recorded for `CCOC(=O)c1ccc(NC(=O)c2nc(S(=O)(=O)Cc3ccccc3)ncc2Cl)cc1`
Result: 4.89

Problem: Respond only with pIC50 recorded for `O=C(NNC(=O)C12CC3CC(CC(C3)C1)C2)c1ccccn1`
Result: 4.96

Problem: Respond only with pIC50 recorded for Cc1ccc(CN2C(=O)C(Cc3ccccc3)Nc3ncnc(N4CCN(c5ccccc5)CC4)c32)cc1 (centres undefined)
Result: 5.53

Problem: Respond only with pIC50 recorded for `Cc1ccc(NC(=O)c2nc(S(=O)(=O)Cc3ccccc3C)ncc2Cl)cc1C`
Result: 4.86

Problem: Respond only with pIC50 recorded for COc1cccc(/C=C2/CCC(CN(C)C)C2=O)c1 (centres undefined)
Result: 4.71

Problem: Respond only with pIC50 recorded for `Cc1[nH][nH]c(=O)c1C(c1c(C)[nH][nH]c1=O)c1cn(Cc2ccc(Cl)c(Cl)c2)c2ccccc12`
Result: 4.58

Problem: Respond only with pIC50 recorded for `N#Cc1c([N+](=O)[O-])cc([N+](=O)[O-])cc1S(=O)(=O)Cc1ccccc1`
Result: 4.93

Problem: Respond only with pIC50 recorded for `Cc1ccc(CS(=O)(=O)c2ncc(Cl)c(C(=O)Nc3ccc(OC(F)F)cc3)n2)cc1`
Result: 4.90

Problem: Respond only with pIC50 recorded for `COC(=O)c1ccc2c(c1)C(C)(C)C(/C=C/c1ccc(OC)c(OC)c1OC)=[N+]2C`
Result: 5.04
